Please provide measured phosphorylation enrichment for the entries that follow.
# subject_of_test: Fyn (UniProt P06241)
# Sequence (P06241 whole entry, looked up): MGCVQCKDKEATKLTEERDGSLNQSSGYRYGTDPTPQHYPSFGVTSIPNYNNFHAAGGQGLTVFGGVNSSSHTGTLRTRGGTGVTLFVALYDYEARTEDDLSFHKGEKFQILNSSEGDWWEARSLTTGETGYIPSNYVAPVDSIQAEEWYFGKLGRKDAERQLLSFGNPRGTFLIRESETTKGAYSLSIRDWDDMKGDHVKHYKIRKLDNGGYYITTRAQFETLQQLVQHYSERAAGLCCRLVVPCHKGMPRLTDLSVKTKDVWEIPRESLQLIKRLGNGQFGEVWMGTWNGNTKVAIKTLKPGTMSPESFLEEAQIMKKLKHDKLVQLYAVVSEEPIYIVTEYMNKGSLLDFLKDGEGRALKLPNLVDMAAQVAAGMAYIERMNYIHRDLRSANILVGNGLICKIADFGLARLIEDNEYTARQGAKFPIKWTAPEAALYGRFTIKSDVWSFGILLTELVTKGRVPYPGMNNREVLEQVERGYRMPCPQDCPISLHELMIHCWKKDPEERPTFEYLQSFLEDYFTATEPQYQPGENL
# test_protocol: phosphorylation enrichment, bacterial display (enrichment ratio); higher = better substrate or ligand; peptides without Tyr show the background;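 note: 11-residue human phosphosite peptides and single-mutation variants displayed on the E. coli surface, counted by deep sequencing, each peptide's frequency after selection divided by its frequency in the unselected input library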;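 note: frequency after pTyr selection over input frequency; kinase dosed for 20-30% of maximal phosphorylation in three min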
// return just the number, without any unit appended

## Input Answer with the recorded phosphorylation enrichment of WAFNLYDINKF [KCNIP3_Y174_D179Y_YF] only.
## Output 2.08

## Input Answer with the recorded phosphorylation enrichment of LSIDRYHAIVY [NPSR1_Y147] only.
## Output 0.546

## Input Answer with the recorded phosphorylation enrichment of AVISVYDLVVV [PSEN1_Y256_A260V] only.
## Output 5.2

## Input Answer with the recorded phosphorylation enrichment of VECQVYAEDPF [PCCA_Y401_R399Q_YF] only.
## Output 0.52

## Input Answer with the recorded phosphorylation enrichment of KLFYIYTSGTT [SLC27A4_Y245] only.
## Output 0.455

----------
# subject_of_test: FGFR3 (UniProt P22607)
# Sequence (P22607 whole entry, looked up): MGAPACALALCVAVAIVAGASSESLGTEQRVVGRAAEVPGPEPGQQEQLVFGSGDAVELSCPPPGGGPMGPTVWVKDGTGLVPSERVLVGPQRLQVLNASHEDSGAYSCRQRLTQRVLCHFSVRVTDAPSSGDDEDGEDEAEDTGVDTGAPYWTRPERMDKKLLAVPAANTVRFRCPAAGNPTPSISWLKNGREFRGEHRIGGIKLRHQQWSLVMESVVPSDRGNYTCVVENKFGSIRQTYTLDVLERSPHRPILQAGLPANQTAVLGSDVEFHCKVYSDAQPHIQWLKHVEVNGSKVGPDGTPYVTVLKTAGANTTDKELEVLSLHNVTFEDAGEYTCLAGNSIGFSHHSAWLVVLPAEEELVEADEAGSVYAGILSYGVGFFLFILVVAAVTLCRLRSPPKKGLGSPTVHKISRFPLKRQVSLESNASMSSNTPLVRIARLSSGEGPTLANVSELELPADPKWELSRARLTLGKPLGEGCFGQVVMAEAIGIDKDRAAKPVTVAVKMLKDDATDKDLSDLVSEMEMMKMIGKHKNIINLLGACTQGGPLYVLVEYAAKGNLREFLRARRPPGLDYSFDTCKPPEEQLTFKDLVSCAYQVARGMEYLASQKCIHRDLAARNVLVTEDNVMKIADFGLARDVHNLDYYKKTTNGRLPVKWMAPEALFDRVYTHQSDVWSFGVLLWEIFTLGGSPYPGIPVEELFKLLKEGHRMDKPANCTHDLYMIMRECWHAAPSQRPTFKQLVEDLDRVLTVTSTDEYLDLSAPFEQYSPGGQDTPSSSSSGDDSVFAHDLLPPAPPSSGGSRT
# test_protocol: phosphorylation enrichment, bacterial display (enrichment ratio); higher = better substrate or ligand; peptides without Tyr show the background
assay_readout: phosphorylation enrichment
// return just the number, without any unit appended

## Input Answer with the recorded phosphorylation enrichment of RLCQDYDTIGP [ANK1_Y1073] only.
## Output 0.976

## Input Answer with the recorded phosphorylation enrichment of YGAHKYHPLPV [OAT_Y55_N54K] only.
## Output 0.403

## Input Answer with the recorded phosphorylation enrichment of RHSGSYLVTSV [APC_Y2838] only.
## Output 0.451

## Input Answer with the recorded phosphorylation enrichment of LIHTKCPQLLP [AHCY_Y143_Y143C] only.
## Output 0.631

## Input Answer with the recorded phosphorylation enrichment of GKFRMYVAVWT [F13A1_Y161] only.
## Output 0.665

----------
# subject_of_test: Fes (UniProt P07332)
# Sequence (P07332 whole entry, looked up): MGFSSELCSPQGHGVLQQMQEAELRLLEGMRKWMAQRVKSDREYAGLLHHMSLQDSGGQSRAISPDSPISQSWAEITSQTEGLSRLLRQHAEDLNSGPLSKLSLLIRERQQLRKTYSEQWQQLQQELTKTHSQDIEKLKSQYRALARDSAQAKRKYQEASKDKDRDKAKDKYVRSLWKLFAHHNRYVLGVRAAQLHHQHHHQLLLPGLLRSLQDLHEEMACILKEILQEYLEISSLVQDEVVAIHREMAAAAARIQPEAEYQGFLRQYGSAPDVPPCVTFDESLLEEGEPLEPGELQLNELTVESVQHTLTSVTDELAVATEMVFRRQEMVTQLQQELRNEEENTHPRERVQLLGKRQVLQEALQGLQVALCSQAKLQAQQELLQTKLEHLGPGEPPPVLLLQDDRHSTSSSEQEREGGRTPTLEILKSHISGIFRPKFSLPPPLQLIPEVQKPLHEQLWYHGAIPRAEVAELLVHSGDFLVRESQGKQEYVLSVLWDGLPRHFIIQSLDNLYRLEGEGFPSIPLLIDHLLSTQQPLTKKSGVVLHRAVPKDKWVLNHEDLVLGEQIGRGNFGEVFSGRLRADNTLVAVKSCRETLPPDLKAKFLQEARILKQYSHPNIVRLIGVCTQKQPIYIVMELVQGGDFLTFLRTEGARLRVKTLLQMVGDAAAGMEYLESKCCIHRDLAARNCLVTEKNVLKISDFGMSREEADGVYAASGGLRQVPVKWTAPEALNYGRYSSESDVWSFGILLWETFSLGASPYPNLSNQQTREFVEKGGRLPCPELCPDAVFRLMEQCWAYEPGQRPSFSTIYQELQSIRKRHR
# test_protocol: phosphorylation enrichment, bacterial display (enrichment ratio); higher = better substrate or ligand; peptides without Tyr show the background
Please provide measured phosphorylation enrichment for the entries that follow.
// return just the number, without any unit appended

## Input Answer with the recorded phosphorylation enrichment of QDEHGYISRCF [HSPB1_Y133] only.
## Output 1.19

## Input Answer with the recorded phosphorylation enrichment of SHGQDYLAGNK [GSTA2_Y147_V149A] only.
## Output 0.845

## Input Answer with the recorded phosphorylation enrichment of AFLEDYFTSTE [SRC_Y522] only.
## Output 1.83

## Input Answer with the recorded phosphorylation enrichment of RCKNHYAAFSV [C1QTNF1_Y145_S143N] only.
## Output 0.749

----------
# subject_of_test: Fes (UniProt P07332)
# test_protocol: phosphorylation enrichment, bacterial display (enrichment ratio); higher = better substrate or ligand; peptides without Tyr show the background
Rule: phosphorylation enrichment under 1 gives f, otherwise t.

## Input Tell me whether phosphorylation enrichment is at least 1 here: FAELVYTSFWH [ASS1_Y322_G324S]
## Output t

## Input Tell me whether phosphorylation enrichment is at least 1 here: RNESFYDTFST [EFCAB3_Y372]
## Output t

## Input Tell me whether phosphorylation enrichment is at least 1 here: TEAEPYFRSLR [NPHS1_Y1138_YF]
## Output f

## Input Tell me whether phosphorylation enrichment is at least 1 here: FRSSLYLLMET [MYO5C_Y633]
## Output t

## Input Tell me whether phosphorylation enrichment is at least 1 here: EKMWSYMKSAE [GRIA3_Y705]
## Output f

## Input Tell me whether phosphorylation enrichment is at least 1 here: RSHLPYDVTPE [IQGAP3_Y1098]
## Output t

## Input Tell me whether phosphorylation enrichment is at least 1 here: GREEFYSTHPH [LRRK2_Y1402]
## Output f

## Input Tell me whether phosphorylation enrichment is at least 1 here: MSGDVYSTDYY [NTRK2_Y702_R699G]
## Output t

----------
# subject_of_test: EPHB1 (UniProt P54762)
# Sequence (P54762 whole entry, looked up): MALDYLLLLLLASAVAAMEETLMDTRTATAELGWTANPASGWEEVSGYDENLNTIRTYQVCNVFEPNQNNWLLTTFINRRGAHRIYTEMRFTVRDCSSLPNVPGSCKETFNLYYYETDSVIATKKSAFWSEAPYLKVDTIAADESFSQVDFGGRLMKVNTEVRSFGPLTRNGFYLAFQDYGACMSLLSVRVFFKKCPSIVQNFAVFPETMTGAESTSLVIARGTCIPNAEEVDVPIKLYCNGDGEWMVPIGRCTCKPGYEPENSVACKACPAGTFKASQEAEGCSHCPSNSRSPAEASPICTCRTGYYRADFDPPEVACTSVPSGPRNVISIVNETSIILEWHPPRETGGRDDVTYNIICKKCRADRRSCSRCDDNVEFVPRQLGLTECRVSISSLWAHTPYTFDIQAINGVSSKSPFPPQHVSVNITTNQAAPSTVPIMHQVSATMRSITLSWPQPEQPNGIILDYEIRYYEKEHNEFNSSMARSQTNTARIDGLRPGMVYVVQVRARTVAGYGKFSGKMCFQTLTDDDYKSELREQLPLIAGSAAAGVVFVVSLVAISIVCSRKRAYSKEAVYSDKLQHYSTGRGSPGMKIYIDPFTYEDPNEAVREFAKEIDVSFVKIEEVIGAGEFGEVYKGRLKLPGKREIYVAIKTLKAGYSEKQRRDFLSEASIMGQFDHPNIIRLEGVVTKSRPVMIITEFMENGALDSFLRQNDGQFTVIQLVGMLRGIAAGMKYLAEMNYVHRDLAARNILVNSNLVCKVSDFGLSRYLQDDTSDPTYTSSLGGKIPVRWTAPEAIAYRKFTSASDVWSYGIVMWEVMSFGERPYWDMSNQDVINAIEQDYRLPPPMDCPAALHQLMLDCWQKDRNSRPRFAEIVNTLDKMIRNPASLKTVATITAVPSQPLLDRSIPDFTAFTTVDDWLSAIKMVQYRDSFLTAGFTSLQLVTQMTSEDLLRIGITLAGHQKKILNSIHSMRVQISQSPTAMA
# test_protocol: phosphorylation enrichment, bacterial display (enrichment ratio); higher = better substrate or ligand; peptides without Tyr show the background
Rule: phosphorylation enrichment under 0.5 gives n, otherwise y.

## Input Tell me whether phosphorylation enrichment is at least 0.5 here: PLRANYLIARV [HLCS_Y635_D634N]
## Output y

## Input Tell me whether phosphorylation enrichment is at least 0.5 here: GGRKGYGGFSR [RECQL5_Y478_D480G]
## Output n

## Input Tell me whether phosphorylation enrichment is at least 0.5 here: CENCHYPIVPL [LCK_Y25]
## Output y

## Input Tell me whether phosphorylation enrichment is at least 0.5 here: GFILMYDITNE [RAB3C_Y110]
## Output y

## Input Tell me whether phosphorylation enrichment is at least 0.5 here: NIRKKYYRAIL [CHD7_Y1217_Q1214R]
## Output n

## Input Tell me whether phosphorylation enrichment is at least 0.5 here: KWRGQYDVAIK [BTK_Y425]
## Output n

## Input Tell me whether phosphorylation enrichment is at least 0.5 here: QITQVYGFFHE [PPP2CA_Y127_D131H_YF]
## Output y

## Input Tell me whether phosphorylation enrichment is at least 0.5 here: KKARAYRPGIE [FLNA_Y287_G288R]
## Output n

## Input Tell me whether phosphorylation enrichment is at least 0.5 here: KKFPDYIQSAM [SGMS2_Y59_I62S_YF]
## Output n

## Input Tell me whether phosphorylation enrichment is at least 0.5 here: SSWPDYVRPLP [HSPB1_Y54_G53D]
## Output y

## Input Tell me whether phosphorylation enrichment is at least 0.5 here: REDVFYTSKLW [AKR1C2_Y81_I79V]
## Output y

## Input Tell me whether phosphorylation enrichment is at least 0.5 here: TIWDSYTTNKV [GNB1_Y85_I80T]
## Output y

## Input Tell me whether phosphorylation enrichment is at least 0.5 here: KDHPDYKFPPR [SOX10_Y171_Q174P_YF]
## Output n

## Input Tell me whether phosphorylation enrichment is at least 0.5 here: RKKEEYKMAPY [F8_Y1990_L1994P]
## Output y

## Input Tell me whether phosphorylation enrichment is at least 0.5 here: GNEEAYGSSHI [FAM171B_Y522_R524S]
## Output n

## Input Tell me whether phosphorylation enrichment is at least 0.5 here: QFLMMYVWSAS [ABCD1_Y337_K336M]
## Output y

## Input Tell me whether phosphorylation enrichment is at least 0.5 here: LFNQDYPIHSV [GATM_Y227_YF]
## Output y

## Input Tell me whether phosphorylation enrichment is at least 0.5 here: PSSNLYFRCLT [CNGA3_Y168_W171C_YF]
## Output y

## Input Tell me whether phosphorylation enrichment is at least 0.5 here: RAMPVYKKAEH [TP63_Y231]
## Output n

## Input Tell me whether phosphorylation enrichment is at least 0.5 here: KHCEDYVFSYN [DSC1_Y846_C848F]
## Output y

## Input Tell me whether phosphorylation enrichment is at least 0.5 here: DPTNTYARPAE [SGMS2_Y24]
## Output n

----------
# subject_of_test: Hck (UniProt P08631)
# Sequence (P08631 whole entry, looked up): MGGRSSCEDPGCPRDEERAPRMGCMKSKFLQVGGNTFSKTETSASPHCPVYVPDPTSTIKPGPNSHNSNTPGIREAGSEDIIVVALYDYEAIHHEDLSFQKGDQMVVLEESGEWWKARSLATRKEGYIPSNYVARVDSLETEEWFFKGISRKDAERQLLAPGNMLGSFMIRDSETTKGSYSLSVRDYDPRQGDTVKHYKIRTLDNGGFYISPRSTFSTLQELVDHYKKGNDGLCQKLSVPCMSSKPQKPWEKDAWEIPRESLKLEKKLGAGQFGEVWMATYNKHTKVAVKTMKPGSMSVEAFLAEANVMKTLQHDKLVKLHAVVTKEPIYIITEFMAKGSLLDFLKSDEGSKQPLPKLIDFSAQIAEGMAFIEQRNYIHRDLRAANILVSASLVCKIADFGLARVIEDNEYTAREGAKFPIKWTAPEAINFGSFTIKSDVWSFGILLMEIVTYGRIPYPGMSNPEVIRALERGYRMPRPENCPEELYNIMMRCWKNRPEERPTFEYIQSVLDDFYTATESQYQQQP
# test_protocol: phosphorylation enrichment, bacterial display (enrichment ratio); higher = better substrate or ligand; peptides without Tyr show the background
assay_readout: phosphorylation enrichment
// return just the number, without any unit appended

## Input Answer with the recorded phosphorylation enrichment of GVRTIYTIDGS [DCLK2_Y124] only.
## Output 0.697

## Input Answer with the recorded phosphorylation enrichment of PLYRKYWPNHI [GREB1L_Y1560] only.
## Output 1.11

## Input Answer with the recorded phosphorylation enrichment of IYLGAYDRFLP [SLC22A5_Y486_V481I] only.
## Output 6.82

## Input Answer with the recorded phosphorylation enrichment of KDHPDYEYQPR [SOX9_Y172_K173E] only.
## Output 0.588

## Input Answer with the recorded phosphorylation enrichment of KAWTIYRPEDS [ZBP1_Y165] only.
## Output 0.482

## Input Answer with the recorded phosphorylation enrichment of ICANKYMVESC [RPL10_Y75_K78E] only.
## Output 0.574

----------
# Tested on: Fer (mouse)
# test_protocol: phosphorylation enrichment, bacterial display (enrichment ratio); higher = better substrate or ligand; peptides without Tyr show the background
Please provide measured phosphorylation enrichment for the entries that follow.
// return just the number, without any unit appended

## Input Print Fer (mouse) phosphorylation enrichment for QEIATYRRQLE [KRT14_Y415_L418Q] .
## Output 0.601

## Input Print Fer (mouse) phosphorylation enrichment for NTEGGYCCICA [CRELD1_Y328_R329C] .
## Output 0.583

## Input Print Fer (mouse) phosphorylation enrichment for EELLRYAIVTP [POC5_Y37_H36R] .
## Output 0.6
